Record type: Ki measurement. Applies to: Cruzipain (Trypanosoma cruzi, UniProt P25779)

molecule="O=C(N[C@@H](CC1CCCCC1)C(=O)N[C@]12CCC[C@H]1OCC2=O)c1ccsc1 [Example 7]" reportedresult="> 50 µM"

# Ki lookup, item CC(C)C[C@H](NC(=O)c1cc2ccccc2s1)C(=O)N[C@]12CCC[C@H]1OCC2=O [Example 6]
> 20 µM

If you can, please state the reported Ki value of CC(C)(C)c1ccc(C(=O)N[C@@H](Cc2ccc(O)cc2)C(=O)N[C@]23CCC[C@H]2OCC3=O)cc1 [Example 1] .
< 2 µM

Hey, just so you know, these numbers are from patent US6958358B2.
